Tested on: rat striatal slices
METHOD NOTES: In vitro [^3H]-Dopamine release
Type: cell-based
CONDITION PARAMETERS: K+ (10 mM) evoked release, rat striatal slices; compounds added at 10^-8 M and 10^-6 M, table does not say which concentration
Give measured Functional activity release [^3H]-Dopamine % of control for each item. Keep answers brief.

Summary for this compound, c1cnc2[nH]c([C@H]3CCCNC3)cc2c1 [Compound 26A] : Functional activity release [^3H]-Dopamine % of control is 139 % of control

The value of Functional activity release [^3H]-Dopamine % of control measured for the compound c1cnc2[nH]c(C[C@@H]3CCCN3)cc2c1 [Compound 39B] turned out to be 133 % of control

The compound identified as CN1CCC[C@H]1Cc1c[nH]c2ncccc12 (stereo in doubt) [Compound 99, reference compound] registered its Functional activity release [^3H]-Dopamine % of control at 112 % of control

Kindly note the recorded Functional activity release [^3H]-Dopamine % of control for Clc1ccc2cc(C[C@@H]3CCCN3)[nH]c2n1 [Compound 45B] , which is 153 % of control

Entry c1cnc2c(C[C@H]3CCCN3)c[nH]c2c1 — recorded Functional activity release [^3H]-Dopamine % of control = 110 % of control

* * *

Consider the following molecules; for each one, report its IC50.
EXPERIMENTAL SYSTEM: dopamine uptake sites (Rattus norvegicus)
Construct: the striatum was rapidly removed and a crude synaptosomal fraction (P2) was prepared; from tissue; host or cells: rat striatum, crude synaptosomal fraction (P2)
METHOD NOTES: In vitro [^3H]-Dopamine uptake in striatal synaptosomes
Format: biochemical
CONDITION PARAMETERS: rat striatal synaptosomes, 10^-9 to 10^-5 M; read-out: Functional activity re-uptake [^3H]-Dopamine pIC50 (converted)
Reply numerically in µM, unit not repeated.

# value of IC50, dopamine uptake sites (Rattus norvegicus), item Clc1ccc2cc(C[C@@H]3CCCN3)[nH]c2n1 [Compound 45B] = 2.51

# IC50 measured on dopamine uptake sites (Rattus norvegicus) for item c1cnc2cc(C3CCNC3)[nH]c2c1 (centres unmarked) = 6.31

Query c1cnc2[nH]c([C@H]3CCCNC3)cc2c1 [Compound 26A] on dopamine uptake sites (Rattus norvegicus); IC50 returned: 2.51

Here Clc1ccc2c(C3CCCNC3)c[nH]c2n1 (centres unmarked) was tested on dopamine uptake sites (Rattus norvegicus), and its IC50 came to 1.58

Log: dopamine uptake sites (Rattus norvegicus), molecule c1cnc2[nH]c(C3CCNC3)cc2c1 (centres unmarked) , IC50 = 2

Entry CC(NC(C)(C)C)C(=O)c1cccc(Cl)c1 (centres unmarked) [bupropion, reference compound] , tested on dopamine uptake sites (Rattus norvegicus), has a reported IC50 of 3.98

Here c1cnc2c(C[C@H]3CCCN3)c[nH]c2c1 was tested on dopamine uptake sites (Rattus norvegicus), and its IC50 came to 7.94

// returns IC50 for c1cnc2[nH]c([C@H]3CCNC3)cc2c1 [Compound 78A] with dopamine uptake sites (Rattus norvegicus); value = 3.98

Readout IC50 for Fc1ccc2cc(C[C@@H]3CCCN3)[nH]c2n1 [Compound 47B] , test system dopamine uptake sites (Rattus norvegicus), was 3.98

Summary line: c1cnc2[nH]c([C@@H]3CCNC3)cc2c1 [Compound 78B] , dopamine uptake sites (Rattus norvegicus), reported IC50 = 1.58

* * *

System: rat striatal slices
METHOD NOTES: In vitro [^3H]-Dopamine release
Assay type: cell-based
CONDITION PARAMETERS: K+ (10 mM) evoked release, rat striatal slices; compounds added at 10^-8 M and 10^-6 M, table does not say which concentration
I'd appreciate it if you could supply Functional activity release [^3H]-Dopamine % of control values for the items below.

The molecule CN1CCCC1c1cccnc1 (stereo not shown) [nicotine, reference compound] showed Functional activity release [^3H]-Dopamine % of control equal to 180 % of control

Value of measured Functional activity release [^3H]-Dopamine % of control for the entry c1cnc2cc(C3CCNC3)[nH]c2c1 (stereo not shown) [Compound 79] : 119 % of control

So, Clc1ccc2c(C3CCCNC3)c[nH]c2n1 (stereo not shown) [Compound 13] ? Its Functional activity release [^3H]-Dopamine % of control was 174 % of control

Entry under test: Brc1ccc2cc(C[C@@H]3CCCN3)[nH]c2n1 [Compound 46B] . Its Functional activity release [^3H]-Dopamine % of control was 123 % of control

get_value(item= CC(NC(C)(C)C)C(=O)c1cccc(Cl)c1 (stereo not shown) [bupropion, reference compound] , readout=Functional activity release [^3H]-Dopamine % of control) returns 124 % of control

Sample Clc1ccc2cc(C3CCCNC3)[nH]c2n1 (stereo not shown) [Compound 32] ; Functional activity release [^3H]-Dopamine % of control observed: 173 % of control

Given item c1cnc2[nH]c(C3CCNC3)cc2c1 (stereo not shown) [Compound 78] , the value recorded as its Functional activity release [^3H]-Dopamine % of control is 154 % of control

// recorded Functional activity release [^3H]-Dopamine % of control for CN1CCC[C@@H]1Cc1c[nH]c2ncccc12 (stereo in doubt) [Compound 98, reference compound] : 132 % of control

Please fill in: Functional activity release [^3H]-Dopamine % of control reported for c1cnc2[nH]c([C@H]3CCNC3)cc2c1 [Compound 78A] = 109 % of control

Lookup result for Fc1ccc2cc(C[C@@H]3CCCN3)[nH]c2n1 [Compound 47B] ; measured Functional activity release [^3H]-Dopamine % of control: 128 % of control

// field: Functional activity release [^3H]-Dopamine % of control; key: c1cnc2[nH]cc(C3CCCNC3)c2c1 (stereo not shown) [Compound 6] ; value = 139 % of control

// recorded Functional activity release [^3H]-Dopamine % of control for c1cnc2[nH]c([C@@H]3CCCNC3)cc2c1 [Compound 26B] : 121 % of control

For record Clc1ccc2cc(C[C@H]3CCCN3)[nH]c2n1 [Compound 45A] the listed Functional activity release [^3H]-Dopamine % of control is 115 % of control

Looking up Brc1ccc2cc(C[C@H]3CCCN3)[nH]c2n1 [Compound 46A] , I see its Functional activity release [^3H]-Dopamine % of control listed as 92 % of control

Entry under test: O=c1cccc2n1C[C@@H]1CNC[C@H]2C1 [cytisine, reference compound] . Its Functional activity release [^3H]-Dopamine % of control was 136 % of control

Lookup result for Fc1ccc2cc(C[C@H]3CCCN3)[nH]c2n1 [Compound 47A] ; measured Functional activity release [^3H]-Dopamine % of control: 137 % of control

Input CN1CCC[C@@H]1Cc1cc2cccnc2[nH]1 [Compound 41A] . Output Functional activity release [^3H]-Dopamine % of control: 100 % of control

Query Clc1ccc2cc([C@@H]3CCCNC3)[nH]c2n1 [Compound 32B] yields Functional activity release [^3H]-Dopamine % of control of 170 % of control

Recorded Functional activity release [^3H]-Dopamine % of control (molecule c1cnc2[nH]c([C@@H]3CCNC3)cc2c1 [Compound 78B] ): 187 % of control

* * *

I'd appreciate it if you could supply pIC50 values for the items below.
EXPERIMENTAL SYSTEM: dopamine uptake sites (Rattus norvegicus, UniProt P23977)
Construct: the striatum was rapidly removed and a crude synaptosomal fraction (P2) was prepared; from tissue; host or cells: rat striatum, crude synaptosomal fraction (P2)
Sequence (P23977 whole entry): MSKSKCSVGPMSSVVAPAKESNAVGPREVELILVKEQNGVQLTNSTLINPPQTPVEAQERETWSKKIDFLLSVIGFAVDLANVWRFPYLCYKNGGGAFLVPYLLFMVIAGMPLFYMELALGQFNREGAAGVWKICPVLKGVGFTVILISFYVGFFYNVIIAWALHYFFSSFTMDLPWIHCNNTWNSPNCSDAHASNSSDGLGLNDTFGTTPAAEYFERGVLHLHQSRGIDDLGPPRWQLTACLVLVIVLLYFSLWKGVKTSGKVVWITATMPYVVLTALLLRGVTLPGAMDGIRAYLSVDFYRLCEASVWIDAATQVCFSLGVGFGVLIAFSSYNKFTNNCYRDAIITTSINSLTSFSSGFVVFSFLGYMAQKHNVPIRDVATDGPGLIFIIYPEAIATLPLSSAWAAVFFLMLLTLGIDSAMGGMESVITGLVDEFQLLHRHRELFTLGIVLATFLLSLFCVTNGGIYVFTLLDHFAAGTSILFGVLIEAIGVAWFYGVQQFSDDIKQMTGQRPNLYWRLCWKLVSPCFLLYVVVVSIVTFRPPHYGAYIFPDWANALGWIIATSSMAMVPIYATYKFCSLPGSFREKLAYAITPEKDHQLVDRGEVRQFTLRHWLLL
METHOD NOTES: In vitro [^3H]-Dopamine uptake in striatal synaptosomes
Assay type: biochemical
For clarity, pIC50 is expressed as the negative log10 of concentration in mol/L.

Kindly note the recorded pIC50 for c1cnc2[nH]c([C@@H]3CCCNC3)cc2c1 [Compound 26B] , which is 6.20

# pIC50 of c1cnc2[nH]cc(C3CCCNC3)c2c1 (centres unmarked) [Compound 6] = 5.40

Reported pIC50 of Clc1ccc2cc([C@@H]3CCCNC3)[nH]c2n1 [Compound 32B] : 6.40
